target: Human full-length Hsp90 (Homo sapiens); construct: E. coli expressed human full-length HSP90 protein, purified >95%; made in house; host or cells: E. coli; assay: Fluorescence polarization assay (competitive binding to HSP90, probe RBT0045864-FAM); conditions: fluorescence polarization assay, activity range; read-out: Hsp90 FP IC50
pIC50: −log10 of the molar value.
Recorded pIC50, one value per entry.

[
  {
    "Molecule": "Nc1nc(-c2ccccc2)c2cc(C(=O)NCCc3cccnc3)sc2n1",
    "pIC50": "< 5.00"
  }
]

IN: Dear colleague, I am looking for the recorded pIC50 of the following molecule: CCOC(=O)c1cc2c(-c3cccc(C#N)c3)nc(N)nc2s1
OUT: < 5.00

IN: Fill in: pIC50 of CNC(=O)c1cc2c(NCc3ccccc3)nc(N)nc2s1 is ___
OUT: < 5.00

IN: Need pIC50, item CCNC(=O)c1cc2c(-c3cc(CNCCO)c(C)cc3C)nc(N)nc2s1
OUT: > 5.00

IN: Give the measured pIC50 of CCOC(=O)c1cc2c(C(=O)c3ccc(OC)c(OC)c3)nc(N)nc2s1 .
OUT: > 5.00

IN: So what's the measured pIC50 for this one? CCNC(=O)c1cc2c(-c3cc(OCc4ccccc4)c(Cl)cc3Cl)nc(N)nc2s1
OUT: > 5.00

IN: GET /values?readout=pIC50&item= CCNC(=O)c1cc2c(-c3ccc(CC)cc3Cl)nc(N)nc2s1
OUT: > 5.00

IN: Report pIC50 for CCOC(=O)c1cc2c(-c3cccc(CN4CCCC4)c3)nc(N)nc2s1 please.
OUT: < 5.00

====

Here the recorded IC50 is given for each entry.
molecular target: Human full-length Hsp90 (Homo sapiens, UniProt P08238); construct: E. coli expressed human full-length HSP90 protein, purified >95%; made in house; host or cells: E. coli; assay: Fluorescence polarization assay (competitive binding to HSP90, probe RBT0045864-FAM); conditions: fluorescence polarization assay, activity range; read-out: Hsp90 FP IC50
Sequence (P08238 whole entry): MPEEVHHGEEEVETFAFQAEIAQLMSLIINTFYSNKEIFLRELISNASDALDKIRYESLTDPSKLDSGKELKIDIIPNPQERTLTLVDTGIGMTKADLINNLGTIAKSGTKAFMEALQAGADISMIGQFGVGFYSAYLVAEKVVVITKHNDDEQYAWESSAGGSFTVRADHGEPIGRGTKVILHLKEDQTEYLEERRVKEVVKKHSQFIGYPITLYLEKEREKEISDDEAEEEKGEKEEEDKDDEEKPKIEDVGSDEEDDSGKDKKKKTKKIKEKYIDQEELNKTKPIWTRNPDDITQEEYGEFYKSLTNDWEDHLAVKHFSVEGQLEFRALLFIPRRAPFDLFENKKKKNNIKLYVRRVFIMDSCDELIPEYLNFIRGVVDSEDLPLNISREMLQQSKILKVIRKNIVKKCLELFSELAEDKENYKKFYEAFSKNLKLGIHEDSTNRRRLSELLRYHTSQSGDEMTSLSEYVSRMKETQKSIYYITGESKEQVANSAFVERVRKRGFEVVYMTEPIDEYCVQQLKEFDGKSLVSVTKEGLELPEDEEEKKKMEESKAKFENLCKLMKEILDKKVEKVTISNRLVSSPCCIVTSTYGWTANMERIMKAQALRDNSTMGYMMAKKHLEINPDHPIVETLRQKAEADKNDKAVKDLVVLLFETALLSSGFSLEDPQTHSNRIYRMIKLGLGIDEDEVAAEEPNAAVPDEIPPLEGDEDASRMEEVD

Look over these answered cases.
[
  {
    "Molecule": "CCNC(=O)c1cc2c(-c3cc(OCC4CCCO4)c(Cl)cc3Cl)nc(N)nc2s1 (stereo not drawn)",
    "Metric": "IC50",
    "Value Observed": "< 10 µM"
  },
  {
    "Molecule": "CNC(=O)c1cc2c(N(C)Cc3ccccc3)nc(N)nc2s1",
    "Metric": "IC50",
    "Value Observed": "> 10 µM"
  }
]

Okay, next one:
IN: Consider the molecule NC(=O)CCNC(=O)c1cc2c(-c3ccc(Cl)cc3Cl)nc(N)nc2s1 and give its measured IC50.
OUT: < 10 µM

====

target: Human full-length Hsp90 (Homo sapiens, UniProt P08238); construct: E. coli expressed human full-length HSP90 protein, purified >95%; made in house; host or cells: E. coli; assay: Fluorescence polarization assay (competitive binding to HSP90, probe RBT0045864-FAM); conditions: fluorescence polarization assay, activity range; read-out: Hsp90 FP IC50
Metric: IC50

Past entries and their recorded results:
[
  {
    "Compound": "CC(C)C[C@H](NC(=O)c1cc2c(-c3ccc(Cl)cc3Cl)nc(N)nc2s1)C(N)=O",
    "IC50": "< 10 µM"
  },
  {
    "Compound": "CCOC(=O)c1cc2c(C(=O)c3cccc(F)c3)nc(N)nc2s1",
    "IC50": "< 10 µM"
  }
]

IN: Report IC50 for CCNC(=O)c1cc2c(-c3cc(CNCc4ccccn4)ccc3C)nc(N)nc2s1 please.
OUT: < 10 µM

IN: If you can, please state the reported IC50 value of CCNC(=O)c1cc2c(-c3cc(O)c(Cl)cc3Cl)nc(N)nc2s1 .
OUT: < 10 µM

IN: // IC50 lookup, key: CCOC(=O)c1cc2c(-c3ccc(Cl)cc3Cl)nc(N)nc2s1
OUT: < 10 µM

====

target: Human full-length Hsp90 (Homo sapiens, UniProt P08238); construct: E. coli expressed human full-length HSP90 protein, purified >95%; made in house; host or cells: E. coli; test: Fluorescence polarization assay (competitive binding to HSP90, probe RBT0045864-FAM); settings: fluorescence polarization assay, activity range; read-out: Hsp90 FP IC50
pIC50: −log10 of the molar value.
This section presents compounds with their documented pIC50 values.

Worked cases, answers included:
[
  {
    "Smiles Text": "CCOC(=O)c1cc2c(C(=O)c3ccc(Cl)c(Cl)c3)nc(N)nc2s1",
    "Value Observed": "> 5.00"
  },
  {
    "Smiles Text": "CCOC(=O)c1cc2c(-c3cc(Cl)ccc3Cl)nc(N)nc2s1",
    "Value Observed": "< 5.00"
  },
  {
    "Smiles Text": "CCOC(=O)c1cc2c(C(=O)c3cccc(C)c3C)nc(N)nc2s1",
    "Value Observed": "> 5.00"
  },
  {
    "Smiles Text": "Nc1nc(-c2ccccc2)c2cc(C(=O)NC3CCCC3)sc2n1",
    "Value Observed": "> 5.00"
  }
]

IN: # returns recorded pIC50 (system: Human full-length Hsp90 (Homo sapiens, UniProt P08238)) for CCOC(=O)c1cc2c(/C=C/C(C)(C)C)nc(N)nc2s1
OUT: < 5.00

IN: Provide value of pIC50 for this record tested with Human full-length Hsp90 (Homo sapiens, UniProt P08238): CCOC(=O)c1cc2c(-c3cc(CNCCN4CCOCC4)ccc3C)nc(N)nc2s1
OUT: > 5.00

====

target: Human full-length Hsp90 (Homo sapiens, UniProt P08238); construct: E. coli expressed human full-length HSP90 protein, purified >95%; made in house; host or cells: E. coli; assay: Fluorescence polarization assay (competitive binding to HSP90, probe RBT0045864-FAM); details: fluorescence polarization assay, activity range; read-out: Hsp90 FP IC50
pIC50: −log10 of the molar value.
Reported pIC50 values follow for various compounds

Record excerpt, results attached:
[
  {
    "Compound": "CCOC(=O)c1cc2c(-c3cncc4ccccc34)nc(N)nc2s1 [Example 293]",
    "Subject Of Test": "Human full-length Hsp90 (Homo sapiens, UniProt P08238)",
    "Metric": "pIC50",
    "Value Observed": "> 5.00"
  },
  {
    "Compound": "CCOC(=O)c1cc2c(-c3ccc(OCCN(CC)CC)cc3C)nc(N)nc2s1 [Example 190]",
    "Subject Of Test": "Human full-length Hsp90 (Homo sapiens, UniProt P08238)",
    "Metric": "pIC50",
    "Value Observed": "< 5.00"
  },
  {
    "Compound": "Nc1nc(-c2ccccc2)c2cc(C(=O)NCCCN3CCOCC3)sc2n1 [Example 66]",
    "Subject Of Test": "Human full-length Hsp90 (Homo sapiens, UniProt P08238)",
    "Metric": "pIC50",
    "Value Observed": "< 5.00"
  },
  {
    "Compound": "CCOC(=O)c1cc2c(C(C#N)c3ccc(OC)cc3)nc(N)nc2s1 (centres unmarked) [Example 318]",
    "Subject Of Test": "Human full-length Hsp90 (Homo sapiens, UniProt P08238)",
    "Metric": "pIC50",
    "Value Observed": "< 5.00"
  },
  {
    "Compound": "CCNC(=O)c1cc2c(-c3cc(CNCc4ccc(C)o4)ccc3C)nc(N)nc2s1 [Example 211]",
    "Subject Of Test": "Human full-length Hsp90 (Homo sapiens, UniProt P08238)",
    "Metric": "pIC50",
    "Value Observed": "> 5.00"
  }
]

Please look at the following compound next.
IN: Which pIC50 is listed for CCNC(=O)c1cc2c(-c3ccc(C)cc3Cl)nc(N)nc2s1 [Example 152] ?
OUT: > 5.00

====

IC50: recorded values
target: Human full-length Hsp90 (Homo sapiens, UniProt P08238); construct: E. coli expressed human full-length HSP90 protein, purified >95%; made in house; host or cells: E. coli; experiment: Fluorescence polarization assay (competitive binding to HSP90, probe RBT0045864-FAM); conditions: fluorescence polarization assay, activity range; read-out: Hsp90 FP IC50

Here are 3 molecules together with their reported answers.
[
  {
    "Molecule": "CC(C)NC(=O)c1cc2c(-c3cc(O)c(Cl)cc3Cl)nc(N)nc2s1",
    "IC50": "< 10 µM"
  },
  {
    "Molecule": "CCNC(=O)c1ccc(C)c(-c2nc(N)nc3sc(C(=O)NCC)cc23)c1",
    "IC50": "< 10 µM"
  },
  {
    "Molecule": "C=C(c1ccccc1)c1nc(N)nc2sc(C(=O)OCC)cc12",
    "IC50": "< 10 µM"
  }
]

IN: Name the recorded IC50 for CCOC(=O)c1cc2c(C(C)c3ccccc3)nc(N)nc2s1 (stereo not drawn) .
OUT: < 10 µM

IN: Item under review: CCOC(=O)c1cc2c(C(=O)c3cccc(Cl)c3)nc(N)nc2s1 . Reported IC50?
OUT: < 10 µM
